- ASSAY TARGET: T1, 4H918-AA
- T1 chain: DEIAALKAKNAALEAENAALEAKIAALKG
- EXPERIMENT: two-hybrid library CCmax;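 also: natural log of median RNA to DNA barcode read ratio; higher means stronger binding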
- MEASUREMENT CONTEXT: mean of both orientations
QUANTITY MEASURED: interaction score

Guide cases for interaction score, answers given:
* DEIAALKAENAALKAEIAALKAKIAALEG [4H717-AA] | -1.34
* DKNAALKAKNAALEAKIAALEAEIAALEG [4H4001-AA] | -0.824
* DKNAALKAKIAALEAEIAALKAKNAALEG [4H3855-AA] | -2.01

P: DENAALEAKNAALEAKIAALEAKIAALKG [4H1446-AA]
Q: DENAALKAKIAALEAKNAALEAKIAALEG [4H1845-AA]
// compare measured interaction score, left P , right Q , return larger // output: label of the selected item
Q
(Q: -1, P: -1.53)
